Target: DrDXPS (WT) (Deinococcus radiodurans, UniProt Q9RUB5)
Sequence (Q9RUB5 whole entry, looked up): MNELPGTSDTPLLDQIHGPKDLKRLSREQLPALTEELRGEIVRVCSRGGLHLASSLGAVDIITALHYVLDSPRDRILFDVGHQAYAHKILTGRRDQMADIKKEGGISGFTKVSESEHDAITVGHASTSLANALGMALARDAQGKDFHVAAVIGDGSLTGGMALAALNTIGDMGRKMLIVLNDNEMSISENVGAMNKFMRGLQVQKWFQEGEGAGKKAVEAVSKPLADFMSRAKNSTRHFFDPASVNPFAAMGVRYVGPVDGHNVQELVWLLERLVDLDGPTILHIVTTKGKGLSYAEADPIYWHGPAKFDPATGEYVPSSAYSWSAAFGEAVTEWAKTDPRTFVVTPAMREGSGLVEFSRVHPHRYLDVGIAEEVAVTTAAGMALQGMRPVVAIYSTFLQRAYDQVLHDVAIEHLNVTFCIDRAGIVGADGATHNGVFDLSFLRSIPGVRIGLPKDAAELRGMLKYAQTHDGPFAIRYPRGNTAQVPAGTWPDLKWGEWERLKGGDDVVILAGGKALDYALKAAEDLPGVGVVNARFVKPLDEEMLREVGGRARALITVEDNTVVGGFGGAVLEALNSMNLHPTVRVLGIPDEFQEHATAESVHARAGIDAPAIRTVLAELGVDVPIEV
Experiment: biochemical
Format: biochemical
Conditions: IC50, Fig. 5F/G; DrDXPS (WT); [ThDP] 0.1 μM (1.6x Km), [PYR] […] (1.2x), [D-GAP] 0.5 mM (2.9x)
pIC50: −log10 of the molar value.
observed.property: pIC50

1. Cc1nc(N)sc1-c1csc(Nc2ccc(C(F)(F)F)cc2)n1 3.88
2. ON=C(Cc1ccc(Cl)cc1)c1ccc(O)cc1O 4.15

---

Assay: metabolic stability in human liver S9 fraction
Conditions: pooled liver S9 fraction

compound	half-life at 10 µM, min
ON=C(Cc1ccc(Cl)cc1)c1ccc(O)cc1O [Compound 9]	20
Nc1ccc(/C(Cc2ccc(Cl)cc2)=N/O)c(O)c1 [Compound 25]	56
OCc1cn(Cc2ccc(Cl)c(Cl)c2)c2ccccc12 [Compound 7]	6
OCc1cn(Cc2ccc(Cl)c(Cl)c2)c2ccc(F)cc12 [Compound 17]	27
